The reported measurements were obtained from PubChem BioAssay (NCI).

- Tested on: NCI-H226 lung
- assay.overview: NCI tumour cell line growth inhibition, 48 h
Where a SMILES comes first, the peptide text is derived from it. [ ]: non-standard residue; d: D form. pGlu = O=C1CC[CH](C(=O)O)N1; Thz = O=C(O)[CH]1CSCN1
quantity: TGI

Below are worked cases with known answers.
# compound, TGI
records = [
    ("O=C1CCC(C(=O)N2CSCC2C(=O)O)N1 (centres undefined) ([pGlu]-[Thz]-OH; configuration not given here)", "> 100 µM"),
    ("CCOC(=O)CNC(=O)C(CCC(=O)N(C)O)NC(=O)CCC(N)C(=O)O (centres undefined)", "> 100 µM"),
    ("CC(C)(C)C1=CC(=N/N=c2\\scc(-c3ccccc3)n2-c2ccccc2)C=C(C(C)(C)C)C1=O", "> 100 µM"),
    ("COc1ccc(-c2ncnc3c2ncn3CC#CCCl)cc1", "26.2 µM"),
]

**Query** Quick check: TGI of `Cc1c(NC(=S)Nc2ccc([N+](=O)[O-])cc2)c(=O)n(-c2ccccc2)n1C` ?
**Result** > 100 µM

**Query** Item `COc1cc2nc(N3CCCN(C)CC3)nc(NC3CCN(Cc4ccccc4)CC3)c2cc1OC` has what recorded TGI?
**Result** 9.08 µM

**Query** # query: TGI of entry `CCN1CCN(CCNc2nccc(-c3c(-c4ccc(F)c(O)c4)nc4occn34)n2)S1(=O)=O`
**Result** > 100 µM

**Query** Need TGI, item CSC(=O)C[C@@]12O[C@@H]([C@@H](C)C3CCC4[C@@H]5C(O)CC6=CC(=O)C=C[C@]6(C)C5CC[C@@]43C)C[C@](C)(O1)C(C)(C)O2 (some centres undefined)
**Result** 38.7 µM

**Query** Look at this compound and give its reported TGI. O=C1C2CCN(CC2)C1CN1CCOCC1 (centres undefined)
**Result** 26.5 µM

----------
- Tested on: SF-539 CNS
- assay.overview: NCI tumour cell line growth inhibition, 48 h
Entries and their TGI
Response body: numeric value in µM, unit text excluded.

// solved cases for TGI follow
# molecule, units.text, observed
measured = [
    ("CCCCCCCCCCCCSC(=S)c1c(C)[nH]n(-c2ccccc2)c1=O", "µM", 33.9),
    ("CC(C)(C)c1cc(/C=C(\\C#N)C2=NCCO2)cc(C(C)(C)C)c1O", "µM", 12.2),
    ("COc1cc(CCC[P+](c2ccccc2)(c2ccccc2)c2ccccc2)c(OC)c2c1OCO2", "µM", 12.6),
    ("Cc1cc2c(F)c(Oc3ncnc(Nc4ccc(N5C[C@@H](C)N[C@@H](C)C5)cc4)c3C#N)cc(F)c2[nH]1", "µM", 2.94),
    ("O=[N+]([O-])c1ccc(-c2csc(N=Nc3c(O)[nH]c4ccccc34)n2)cc1", "µM", 39.3),
]

# input for lookup
**Query** Quick one: TGI for `COc1cc2nc(N3CCCN(C)CC3)nc(NC3CCN(Cc4ccccc4)CC3)c2cc1OC` ?
**Result** 3.33

----------
- Tested on: HOP-92 NSCLC
- assay.overview: NCI tumour cell line growth inhibition, 48 h; in the data active means GI50 below about 0.43 µM; inactive means the rest
Result category, one only: True = active, False = inactive

These solved cases illustrate the format of a correct answer.
# compound, category.label
records = [
    ("C=C(C)[C@@H]1CC[C@]2(CO)CC[C@]3(C)[C@H](CC[C@@H]4[C@@]5(C)CCCNC(C)(C)[C@@H]5CC[C@]43C)[C@@H]12", "False"),
    ("CN1C(=O)CCC(N2C(=O)c3cccc(NCCOCCOCCNC(=O)c4cc5c(o4)C(=O)c4ccccc4C5=O)c3C2=O)C1=O (stereo not given)", "False"),
    ("NCCCCC(NC(=O)C(N)CCCN=C(N)N)C(=O)NC(CCCCN)C(=O)NC(CCCN=C(N)N)C(=O)NC(CCCN=C(N)N)C(=O)NC(CCC(N)=O)C(=O)NC(CCCN=C(N)N)C(=O)NC(CCCN=C(N)N)C(=O)NC(CCCN=C(N)N)C(=O)NCC(=O)NCC(=O)O (stereo not given)", "False"),
    ("CC1=C([Te]c2ccccc2)C(=O)c2ccccc2C1=O", "True"),
    ("CCOC(=O)c1[nH]c2cc(Cl)ccc2c1[C@@H](C(=O)NC(C)(C)C)N(CC)C(=O)CCCCC#Cc1cccc2c1CN(C1CCC(=O)NC1=O)C2=O (stereo not given in full)", "True"),
    ("COc1cnc2c(c1)C(=O)c1c-2n(CCCN2CCCC2)c(=O)c2cc([N+](=O)[O-])ccc12", "False"),
    ("O=C1c2c(c(=O)[nH]c3ccccc23)[C@H](c2ccccc2)[C@@H]2CCCN12", "False"),
    ("COc1ccccc1C#Cc1ccccc1C#Cc1ccc(OCCCCCCOc2ccccc2C#Cc2ccccc2C#Cc2ccccc2OC)cc1", "False"),
    ("C(=N\\Nc1ncc(-c2cc3cc4c(cc3o2)OCO4)s1)/c1ccco1", "False"),
    ("CSc1cc([C@@H]2C[C@H]2c2ccc(Cl)cc2)on1", "False"),
]

**Query** Dear colleague, could you share the recorded outcome for `O=S(=O)(N=C1C(Cl)=C(Cl)C(=NS(=O)(=O)c2ccccc2)C(Cl)=C1Cl)c1ccccc1` when you have a moment?
**Result** False

----------
- Tested on: 786-0 renal
- assay.overview: NCI tumour cell line growth inhibition, 48 h
Reported TGI by item:

Example entries begin here.
# molecule, target.entity, quantity, observed
measured = [
    ("COC(=O)C(Cc1c[nH]c2ccccc12)NC(=O)C(Cc1cnc[nH]1)NC(=O)C1CCC(=O)N1C(=O)OCc1ccccc1 (stereo not given)", "786-0 renal", "TGI", "> 100 µM"),
    ("COC[C@H](NC(=O)c1cnc(C)s1)C(=O)N[C@@H](COC)C(=O)N[C@@H](Cc1ccccc1)C(=O)[C@@]1(C)CO1", "786-0 renal", "TGI", "> 100 µM"),
    ("Nc1nc(Cl)cc(NCC2(CCO)CCC2)n1", "786-0 renal", "TGI", "> 100 µM"),
]

**Query** Give its TGI value. Item: `O=c1[nH]c(Nc2ccc(Br)c(C(F)(F)F)c2)nc2nc[nH]c12`
**Result** > 100 µM

**Query** Quick one: TGI for `CC(=O)OCc1c(O)c2c([nH]c1=O)CCc1ccccc1-2` ?
**Result** 115 µM

**Query** If you can, please state the reported TGI value of `CCCCCCCCCCCCSC(=S)c1c(C)[nH]n(-c2ccccc2)c1=O` .
**Result** > 50 µM

**Query** I would be grateful if you could share the reported TGI for `O=S1(=O)c2ccccc2N(O)C2=NCCN21` .
**Result** > 100 µM

**Query** Fill in: TGI of `Nc1ncnc2c1ncn2[C@H]1C=C[C@@H](NO)C1` is ___
**Result** > 100 µM

**Query** Which TGI is reported for this molecule? Cc1ccc(NCC2(/N=C/c3ccccc3)OC(CO)C(O)C2O)cc1 (stereo not given)
**Result** > 100 µM

**Query** Any idea what TGI was measured for `c1ccc(SC(Sc2ccccc2)=C2CCC2)cc1` ?
**Result** > 100 µM

----------
- Tested on: NCI/ADR-RES ovarian
- assay.overview: NCI tumour cell line growth inhibition, 48 h
quantity: GI50

# molecule, target.entity, GI50
data = [
    ("CCC1=C(c2ccc(OC)cc2)C(C)(C)Oc2c1ccc(O)c2CN1CCCC1", "NCI/ADR-RES ovarian", "3.05 µM"),
    ("CCOC(=O)c1[nH]c2cc(Cl)ccc2c1[C@@H](C(=O)NC(C)(C)C)N(CC)C(=O)CCCCC#Cc1cccc2c1CN(C1CCC(=O)NC1=O)C2=O (stereo partly specified)", "NCI/ADR-RES ovarian", "1.19 µM"),
]

**Query** Consider the molecule shown here: `C=C(C)[C@@H]1CC[C@]2(CO)CC[C@]3(C)[C@H](CC[C@@H]4[C@@]5(C)CCCNC(C)(C)[C@@H]5CC[C@]43C)[C@@H]12` What is its recorded GI50?
**Result** 1.63 µM

**Query** Item `CC1(C)N=C(N)N=C(N)N1c1ccc(CNC(=O)Nc2ccc(S(=O)(=O)F)c(Cl)c2)c(Cl)c1` has what recorded GI50?
**Result** > 90.8 µM

**Query** GET /values?readout=GI50&item= `CCSC[C@@H]1C[C@](O)(c2ccc(Cl)cc2)[C@@H](c2ccc(Cl)cc2)O1`
**Result** 20.5 µM

**Query** What GI50 value was documented for this molecule, `C(=N\Nc1ncc(-c2cc3cc4c(cc3o2)OCO4)s1)/c1ccco1` ?
**Result** 2.21 µM

**Query** Which GI50 is reported for this molecule? `Fc1cccc(COc2ccc(Nc3ncnc4onc(-c5ccccc5)c34)cc2)c1`
**Result** 3.02 µM

**Query** Would you mind telling me what GI50 value was observed for `CSc1cc([C@@H]2C[C@H]2c2ccc(Cl)cc2)on1` ?
**Result** 13.6 µM
